- Test System: p70 (NAMPT) (Homo sapiens, UniProt P43490)
- Construct: endogenous in cells; host or cells: H2122 lung cancer cells
- Sequence (P43490 whole entry): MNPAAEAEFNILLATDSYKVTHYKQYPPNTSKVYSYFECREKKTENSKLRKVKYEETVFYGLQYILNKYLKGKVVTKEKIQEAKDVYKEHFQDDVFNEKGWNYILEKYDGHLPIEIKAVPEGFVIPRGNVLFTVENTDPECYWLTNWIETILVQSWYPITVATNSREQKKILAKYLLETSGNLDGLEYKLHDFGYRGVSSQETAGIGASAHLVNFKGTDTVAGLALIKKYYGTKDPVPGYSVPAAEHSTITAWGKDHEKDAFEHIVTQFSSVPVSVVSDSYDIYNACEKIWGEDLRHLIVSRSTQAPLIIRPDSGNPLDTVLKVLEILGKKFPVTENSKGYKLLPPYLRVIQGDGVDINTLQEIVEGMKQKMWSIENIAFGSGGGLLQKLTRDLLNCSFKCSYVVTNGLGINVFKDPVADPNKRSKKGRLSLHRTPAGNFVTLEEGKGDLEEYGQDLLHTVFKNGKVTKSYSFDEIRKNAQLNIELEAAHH
- Method Notes: binding competition for photo-crosslinking of P7C3-S326 to p70 in H2122 cells
- Measurement Context: 0.3 μM P7C3-S326 plus 5 μM competitor, p70 band intensity, P7C3-S326 alone compared with plus competitor, vehicle 1.0
Field: Binding competition. Provide a value for each of the molecules that follow.
Answer field: number only, no words.

[in] Supply reported Binding competition belonging to this molecule: FC(F)(COc1ccccc1)Cn1c2ccc(Br)cc2c2cc(Br)ccc21
[out] 1.0

[in] Supply reported Binding competition belonging to this molecule: COc1cccc(NC[C@H](O)Cn2c3ccc(Br)cc3c3cc(Br)ccc32)c1
[out] 3.1

[in] Supply reported Binding competition belonging to this molecule: Cc1c(C)n(CC(O)CNc2ccccc2)c2ccc(Br)cc12 (stereo not shown)
[out] 1.7

[in] Supply reported Binding competition belonging to this molecule: C=C/C=N\C=C\NCC(O)Cn1c2ccc(Br)cc2c2cc(Br)ccc21 (stereo not shown)
[out] 2.5

[in] Supply reported Binding competition belonging to this molecule: COc1cccc(NC(=O)C(O)Cn2c3ccc(Br)cc3c3cc(Br)ccc32)c1 (stereo not shown)
[out] 6.2

[in] Supply reported Binding competition belonging to this molecule: OC(CNc1ccccc1)Cn1c2ccc(Br)cc2c2cc(Br)ccc21 (stereo not shown)
[out] 2.6

[in] Supply reported Binding competition belonging to this molecule: OC(COc1ccccc1)Cn1c2ccc(Br)cc2c2cc(Br)cnc21 (stereo not shown)
[out] 2.9

[in] Supply reported Binding competition belonging to this molecule: COc1cccc(SCC(F)Cn2c3ccc(Br)cc3c3cc(Br)ccc32)c1 (stereo not shown)
[out] 1.0

[in] Supply reported Binding competition belonging to this molecule: O=S(=O)(CC(F)Cn1c2ccc(Br)cc2c2cc(Br)ccc21)c1ccc(O)cc1 (stereo not shown)
[out] 1.9

[in] Supply reported Binding competition belonging to this molecule: N=c1ccccn1CC(O)Cn1c2ccc(Br)cc2c2cc(Br)ccc21 (stereo not shown)
[out] 1.4
